QUANTITY: melting point

Clc1ccc(-c2ccc3nc(C#Cc4ccc(CN5CCCC5)cc4)ccc3c2)cc1 [Example 17]    170 to 193 °C
Clc1ccc(-c2ccc3nc(C#Cc4cccc(OCCN5CCCC5)c4)ccc3c2)cc1 [Example 19]    114 to 117 °C
Clc1ccc(-c2ccc3nc(C#Cc4ccc5oc(CN6CCCC6)nc5c4)ccc3c2)cc1 [Example 20]    151 to 153 °C
CN(C)CC1CCN(CCOc2ccc(C#Cc3ccc(-c4ccc(Cl)cc4)cn3)cc2)CC1.Cl    > 250 °C
Clc1ccc(-c2ccc3nc(C#Cc4ccc(OCCN5CCCC5)cc4)ccc3c2)cc1 [Example 18]    176 to 185 °C
Clc1ccc(-c2ccc(C#Cc3ccc4oc(CN5CCCC5)nc4c3)nc2)cc1 [Example 21]    145 °C
